From: the supplement of paper PMC4466140

Molecular target: ScHof1
Assay: SPOT peptide array binding signal intensity (averaged, normalized) (arbitrary units (background-subtracted, floor 0; scale differs between SH3 domains)); higher = stronger binding of the SH3 domain to the peptide
Recorded SPOT peptide array binding signal intensity for the following binders

TKPTPPPKPSHLKPK | 2
NLDRSKISLPDFDDE | 2

Query binder follows.
(Q) Look up and state reported SPOT peptide array binding signal intensity for `ITHRLRISIPGITGR`
(A) 2
